Values compiled from PubChem BioAssay AID1259422.

Listing: inhibition of selected molecules
# Method Notes: TEAD-YAP interaction inhibition, primary screen, TEAD-YAP interaction inhibitor project, luminescence, HEK-TIYL cells (AID 1259422);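 also: 0% = median of test compound wells and 100% = reference inhibitor wells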
# Condition Description: TEAD-Gal4/YAP UAS-luciferase luminescence, at 9.12 µM, hits give high values
About 9,300 (1.5%) of roughly 640,000 compounds were called active. The sample holds actives, similar compounds and a random draw of the others, so the mix is not that of the screen.
Numeric only. Scale: %

Some molecules with known inhibition results, for comparison:
Molecule: COc1ccc(-n2nnnc2-c2nc3ccccc3s2)cc1
inhibition (%): 74.2
--
Molecule: COc1ccc(OC)c(C(=O)c2ccc(C(=O)NC3CC(C)(C)NC(C)(C)C3)cc2)c1
inhibition (%): 17.9

QUERY: Give the measured inhibition of COc1cc(NC(=O)c2sc3nc(C)nc(N4CCN(C)CC4)c3c2C)cc(OC)c1 .
RESULT: 4.26

QUERY: And CCN(CC)CCCNC(=O)c1ccc(Cn2c(=S)[nH]c3cc4c(cc3c2=O)OCO4)cc1 ?
RESULT: -11.4

QUERY: // repeat for Cc1sc2nc3n(c(=O)c2c1C)N=C(c1cccs1)CS3 and report
RESULT: 50.3

QUERY: Would you kindly repeat that for Cc1sc2nc3n(c(=O)c2c1-c1cccs1)CCC3 ?
RESULT: -2.17

QUERY: Now consider CCOC(=O)c1ccc(NC(=O)N2CCN(c3nc(-c4ccccc4)cs3)CC2)cc1 .
RESULT: -7.79

QUERY: Moving on to the next molecule: Cc1ccc(NC(=O)c2cc(S(=O)(=O)N3CCN(c4cccc(Cl)c4)CC3)ccc2F)cc1F
RESULT: -4.95

QUERY: // query: CCc1nnc2sc(-c3ccc(NC(=O)COc4ccccc4[N+](=O)[O-])cc3)nn12
RESULT: 1.75

QUERY: Another molecule: Cc1nc2scc(-c3cccs3)c2c(=O)n1N
RESULT: 4.54

QUERY: COC(=O)CCCC(=O)N1CCOCCOCCN(C(=O)CCCC(=O)OC)CCOCCOCC1 ?
RESULT: 7.88

QUERY: Do the same for O=C(CO/N=C/c1ccccc1)N=Nc1c(O)[nH]c2ccccc12 please
RESULT: 5.66
